The reported numbers originate from ChEMBL document CHEMBL1156777.

The following compounds are listed with their measured pIC50 values.
tested on: Plasmodium falciparum; experiment: Antiplasmodial activity against chloroquine-resistant Plasmodium falciparum K1 infected in human erythrocytes after 48 hrs assessed as [3H]hypoxanthine incorporation by liquid scintillation counting; type: functional, organism-based
pIC50: −log10 of the molar value.
MEASURED_METRIC: pIC50

- STRUCTURE_AS_SMILES: "Cl.Cl.N=C(N)c1cccc(-n2cc(-c3ccc(C(=N)N)cc3O)nn2)c1"
  SYSTEM_UNDER_TEST: "Plasmodium falciparum"
  MEASURED_METRIC: "pIC50"
  READING: 8.15
- STRUCTURE_AS_SMILES: "COc1ccc(C(=N)N)cc1-n1cc(-c2cccc(C(=N)N)c2)nn1.Cl.Cl"
  SYSTEM_UNDER_TEST: "Plasmodium falciparum"
  MEASURED_METRIC: "pIC50"
  READING: 7.55
- STRUCTURE_AS_SMILES: "COc1ccc(C2=NCCN2)cc1-c1cn(-c2ccc(C3=NCCN3)cc2)nn1.Cl.Cl"
  SYSTEM_UNDER_TEST: "Plasmodium falciparum"
  MEASURED_METRIC: "pIC50"
  READING: 8.00
- STRUCTURE_AS_SMILES: "CC(C)NC(=N)c1ccc(-c2cn(-c3cccc(C(=N)NC(C)C)c3)nn2)cc1"
  SYSTEM_UNDER_TEST: "Plasmodium falciparum"
  MEASURED_METRIC: "pIC50"
  READING: 7.37
- STRUCTURE_AS_SMILES: "Cl.Cl.N=C(N)c1cccc(-n2cc(-c3cc(C(=N)N)ccc3O)nn2)c1"
  SYSTEM_UNDER_TEST: "Plasmodium falciparum"
  MEASURED_METRIC: "pIC50"
  READING: 7.44
- STRUCTURE_AS_SMILES: "Cl.Cl.N=C(N)c1ccc(-n2cc(-c3cccc(C(=N)N)c3)nn2)cc1"
  SYSTEM_UNDER_TEST: "Plasmodium falciparum"
  MEASURED_METRIC: "pIC50"
  READING: 8.52
- STRUCTURE_AS_SMILES: "Cl.Cl.N=C(N)c1cccc(-c2cn(-c3cccc(C(=N)N)c3)nn2)c1"
  SYSTEM_UNDER_TEST: "Plasmodium falciparum"
  MEASURED_METRIC: "pIC50"
  READING: 7.68
- STRUCTURE_AS_SMILES: "COc1cc(C2=NCCN2)ccc1-n1cc(-c2cccc(C3=NCCN3)c2)nn1"
  SYSTEM_UNDER_TEST: "Plasmodium falciparum"
  MEASURED_METRIC: "pIC50"
  READING: 7.24
- STRUCTURE_AS_SMILES: "COc1cc(C(=N)N)ccc1-c1cn(-c2cccc(C(=N)N)c2)nn1.Cl.Cl"
  SYSTEM_UNDER_TEST: "Plasmodium falciparum"
  MEASURED_METRIC: "pIC50"
  READING: 8.15
- STRUCTURE_AS_SMILES: "COc1cc(C(=N)NC(C)C)ccc1-c1cn(-c2cccc(C(=N)NC(C)C)c2)nn1"
  SYSTEM_UNDER_TEST: "Plasmodium falciparum"
  MEASURED_METRIC: "pIC50"
  READING: 7.47
- STRUCTURE_AS_SMILES: "CC(C)NC(=N)c1ccc(-c2cn(-c3cc(C(=N)NC(C)C)ccc3O)nn2)cc1"
  SYSTEM_UNDER_TEST: "Plasmodium falciparum"
  MEASURED_METRIC: "pIC50"
  READING: 5.28
- STRUCTURE_AS_SMILES: "Cl.Cl.N=C(N)c1ccc(-n2cc(-c3cc(C(=N)N)ccc3O)nn2)cc1"
  SYSTEM_UNDER_TEST: "Plasmodium falciparum"
  MEASURED_METRIC: "pIC50"
  READING: 7.66
- STRUCTURE_AS_SMILES: "Oc1cc(C2=NCCN2)ccc1-n1cc(-c2ccc(C3=NCCN3)cc2)nn1"
  SYSTEM_UNDER_TEST: "Plasmodium falciparum"
  MEASURED_METRIC: "pIC50"
  READING: 7.39
- STRUCTURE_AS_SMILES: "COc1cc(C2=NCCN2)ccc1-c1cn(-c2cccc(C3=NCCN3)c2)nn1"
  SYSTEM_UNDER_TEST: "Plasmodium falciparum"
  MEASURED_METRIC: "pIC50"
  READING: 7.19
- STRUCTURE_AS_SMILES: "COc1cc(C(=N)N)ccc1-n1cc(-c2ccc(C(=N)N)cc2)nn1.Cl.Cl"
  SYSTEM_UNDER_TEST: "Plasmodium falciparum"
  MEASURED_METRIC: "pIC50"
  READING: 8.05
- STRUCTURE_AS_SMILES: "COc1cc(C(=N)NC(C)C)ccc1-n1cc(-c2cccc(C(=N)NC(C)C)c2)nn1"
  SYSTEM_UNDER_TEST: "Plasmodium falciparum"
  MEASURED_METRIC: "pIC50"
  READING: 7.26
- STRUCTURE_AS_SMILES: "Oc1cc(C2=NCCN2)ccc1-c1cn(-c2cccc(C3=NCCN3)c2)nn1"
  SYSTEM_UNDER_TEST: "Plasmodium falciparum"
  MEASURED_METRIC: "pIC50"
  READING: 7.80
- STRUCTURE_AS_SMILES: "Cl.Cl.N=C(N)c1ccc(-c2cn(-c3ccc(C(=N)N)cc3)nn2)cc1"
  SYSTEM_UNDER_TEST: "Plasmodium falciparum"
  MEASURED_METRIC: "pIC50"
  READING: 8.70
- STRUCTURE_AS_SMILES: "N=C(N)c1cccc(-c2cn(-c3cc(C(=N)N)ccc3O)nn2)c1"
  SYSTEM_UNDER_TEST: "Plasmodium falciparum"
  MEASURED_METRIC: "pIC50"
  READING: 5.05
- STRUCTURE_AS_SMILES: "CC(C)NC(=N)c1ccc(-n2cc(-c3cccc(C(=N)NC(C)C)c3)nn2)cc1"
  SYSTEM_UNDER_TEST: "Plasmodium falciparum"
  MEASURED_METRIC: "pIC50"
  READING: 7.42
